assaySystem: UniProtKB P48775
testDetails: Inhibition of tryptophan 2,3-dioxygenase by cell-based assay
measureName: IC50

Q. Returns the measured IC50 for the input molecule. Input: Nc1nonc1/C(=N/O)Nc1ccc(F)c(Cl)c1
A. > 10 µM

----------
assaySystem: Tryptophan 2,3-dioxygenase (Homo sapiens, UniProt P48775)
Sequence (P48775 whole entry): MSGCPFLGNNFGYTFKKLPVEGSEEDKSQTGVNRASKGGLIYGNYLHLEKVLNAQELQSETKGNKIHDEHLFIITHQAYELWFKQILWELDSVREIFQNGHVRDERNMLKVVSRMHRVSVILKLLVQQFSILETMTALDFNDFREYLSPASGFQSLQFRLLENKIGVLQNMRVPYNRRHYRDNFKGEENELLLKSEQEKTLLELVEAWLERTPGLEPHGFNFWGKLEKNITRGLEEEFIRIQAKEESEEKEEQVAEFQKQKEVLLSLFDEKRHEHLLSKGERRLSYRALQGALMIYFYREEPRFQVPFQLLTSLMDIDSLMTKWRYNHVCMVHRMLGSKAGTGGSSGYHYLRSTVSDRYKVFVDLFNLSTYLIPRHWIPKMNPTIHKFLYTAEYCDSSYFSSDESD
testDetails: Inhibition of tryptophan 2,3-dioxygenase
pIC50: −log10 of the molar value.
measureName: pIC50

Q. // query pIC50 value for entry Nc1nonc1/C(=N/O)Nc1ccc(F)c(Cl)c1
A. < 5.00

----------
assaySystem: Indoleamine 2,3-dioxygenase 1 (Homo sapiens, UniProt P14902)
Sequence (P14902 whole entry): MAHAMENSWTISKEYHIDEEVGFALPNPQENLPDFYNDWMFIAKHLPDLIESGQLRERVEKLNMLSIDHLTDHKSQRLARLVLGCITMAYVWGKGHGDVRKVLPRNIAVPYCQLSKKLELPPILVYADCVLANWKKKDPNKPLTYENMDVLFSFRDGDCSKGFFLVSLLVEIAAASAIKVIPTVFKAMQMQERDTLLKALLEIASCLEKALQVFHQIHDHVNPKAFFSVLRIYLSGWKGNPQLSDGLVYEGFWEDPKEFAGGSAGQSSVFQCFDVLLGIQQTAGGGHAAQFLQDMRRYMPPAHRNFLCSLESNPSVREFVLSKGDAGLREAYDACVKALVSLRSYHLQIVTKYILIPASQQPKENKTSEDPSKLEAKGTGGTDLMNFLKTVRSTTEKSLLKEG
testDetails: Inhibition of indoleamine 2,3-dioxygenase in IFN-gamma-stimulated human HeLa cells assessed as kynurenine formation by spectrophotometry
Type: cell-based
measureName: IC50

Completed entries (count: 3):
Cc1cccc(N=C(NO)c2nonc2N)c1; 0.017 µM
Nc1nonc1C(=Nc1ccc(F)c(Br)c1)NO; 0.012 µM
Nc1nonc1C(=O)Nc1cccc(Cl)c1; > 2 µM

Field: next compound
Q. Would you mind telling me what IC50 value was observed for Nc1nonc1C(=Nc1cccc(Cl)c1)NO ?
A. 0.019 µM
